Quick list: IC50 per entry.
# measurement_target: T1, full length human KLRG1 (human, UniProt Q96E93 1-195)
# T1 construct: whole, on cells; also called CHO-human-KLRG1; CHO-hKLRG1
# T1 sequence (looked up): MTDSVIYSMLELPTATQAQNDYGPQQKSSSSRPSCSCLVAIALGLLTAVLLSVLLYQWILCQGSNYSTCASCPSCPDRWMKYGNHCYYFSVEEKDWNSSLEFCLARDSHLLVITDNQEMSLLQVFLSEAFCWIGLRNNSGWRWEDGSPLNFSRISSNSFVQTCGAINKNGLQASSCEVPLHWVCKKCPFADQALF
# assay_summary: FACS competition, loss of HIS tagged E-cadherin binding to CHO-hKLRG1 cells
Enter your answer as a number in nM; do not include the unit.

Illustrative cases are given below, each with its answer.
# binder, IC50 / nM
records = [
    ("ABC_G1N02 (antibody, V domains shown, Mouse hybridoma monoclonal antibody) VH: QVTLKESGPGILQPSQTLSLTCSVSGFSLSTFGMGVGWIRQPSGKGLEWLAHIWWDDDKWYELALKSRLTISKDSSKNQVFLKIANVDTADTATYFCARVIYYGSRSAYYSMDYWGPGTSVTVSS VL: DVLMTQTPLSLPVSLGAQASISCKSSQSIVHSNGHTYLEWYLQKPGQSPKILIYKVSNRFSGVPDRFSGSGSGTDFTLKISRVEAEDLGVYYCFQGSHVPVTFGAGTKLELK", 5.03),
    ("ABC_G1N08 (antibody, V domains shown, Mouse hybridoma monoclonal antibody) VH: QVQLQQSGAELAKPGASVKLSCKASGYTFTSYFLHWVKQRPGQGLEWIGYMNPSSGYTKCNQKFKDKATLTADKSSSTAYMQVSSLTYEDSAVYYCARDRIGYWDFDVWGTGTTVTVSS VL: DVVMTQSQKFMSTTVGDRVSITCKASQNVGTAVAWYQQKPGQSPKLLIYSASNRYTGVPDRFTGSGSGTDFTLTITNMQSEDLADYFCQQYSSYLTFGAGTKLDLK", 10),
]

Fill in reported IC50 for this entry: ABC_G1N01 (antibody, V domains shown, Mouse hybridoma monoclonal antibody) VH: QVILKESGPGILQPSQTLSLTCSFSGFSLTTFGMGIGWIRHPSGKALEWLAHIWWNDDKSYNSALKSRLTISKDTSKNQVFLRLANVATADTATYYCARTIYYGNYLTFYAMEHWGQGTSVTVSS VL: DVLLTQTPLSLPVSLGDQASISCRSSQNIVHSNGNTYLEWYLLKPGQSPKLLIFKVSNRFSGVPDKFSGSGSGTDFTLKIRRVEAEDLGIYYCFQGSHVPPTFGAGTKLELK
12.2

Fill in reported IC50 for this entry: ABC_G1N07 (antibody, V domains shown, Mouse hybridoma monoclonal antibody) VH: EVQLVESGGGLVKPGGSLKLSCTASGFTFRNYAMSWVRQTPEKRLEWVATISESGNYNNYPDNVKGRLTISRDNAKNNLYLQMSLLKSEDTAMYYCVRDDWEGRAMDYWGQGTSVTVSS VL: GIQMTQSPSSLSASLGERVSLTCRASRDIGSSLNWLQQKPDGTIKRLIYATSSLDSGVPKRFSGSRSGTDYSLTISSLESEDFVDYFCLQYASSPWTFGGGTKLEIK
9.6
